- assay: qHTS profiling of inhibitors of Plasmodium falciparum (DD2) proliferation (acoustic dispense)
- protocolConditions: P. falciparum Dd2 in erythrocytes, SYBR Green DNA, 72 h; at 49.8 µM (top of the series) unless noted
- Procedure: Plasmodium falciparum is a virulent malarial parasite that kills 1-2 million people worldwide each year. […] Because mature erythrocytes lack DNA, only Plasmodium-derived DNA is detected. The SYBR Green viability assay was adapted from a method described previously (Plouffe et al., 2008). […] The following morning, fluorescence intensity at 485(14) nm excitation and 535(25) nm emission wavelengths was measured on an EnVision (Perkin Elmer) plate reader. […]
In this section, each of the compounds is paired with its reported parasite growth, lower = inhibition.

- compoundStructure: "OB1OCc2cc(F)ccc21"
  parasite growth, lower = inhibition [%]: 88.5
- compoundStructure: "CC(=O)Nc1nnc(S(N)(=O)=O)s1"
  parasite growth, lower = inhibition [%]: 91
- compoundStructure: "O=C(C[C@@H]1NCCC[C@@H]1O)Cn1cnc2ccccc2c1=O"
  parasite growth, lower = inhibition [%]: -0.505
- compoundStructure: "CC1=C(O)C(=O)C=C2C1=CC=C1[C@@]2(C)CC[C@@]2(C)[C@@H]3C[C@](C)(C(=O)O)CC[C@]3(C)CC[C@]12C"
  parasite growth, lower = inhibition [%]: 3.33

---

- assay: qHTS profiling of inhibitors of Plasmodium falciparum (DD2) proliferation (acoustic dispense)
- protocolConditions: P. falciparum Dd2 in erythrocytes, SYBR Green DNA, 72 h; at 49.8 µM (top of the series) unless noted
Quick reference for parasite growth, lower = inhibition among some compounds
measure: parasite growth, lower = inhibition (%)

- compound: "COC1=CC(C)=C[C@@H](C)[C@@H](O)[C@@H](C)CC(C)=CC=C[C@H](OC)[C@H]([C@@H](C)[C@@H](O)[C@H](C)[C@@]2(O)C[C@@H](O)[C@H](C)[C@@H](C(C)C)O2)OC1=O"
  unitsText: "%"
  resultValue: 0.538
- compound: "O=c1[nH]c2ccc(Cl)cc2c(N[C@@H]2CN3CCC2CC3)c1-c1nc2ccccc2[nH]1"
  unitsText: "%"
  resultValue: 0.0567
- compound: "CC(C)(N)CNC(=O)CC1CCC2(CC1)OOC1(O2)C2CC3CC(C2)CC1C3 (stereo not given)"
  unitsText: "%"
  resultValue: -0.141
- compound: "CN1C(=O)C[C@H](C(=O)N[C@@H](Cc2cnc[nH]2)C(=O)N2CCC[C@@H]2C(N)=O)NC1=O"
  unitsText: "%"
  resultValue: 82
- compound: "CC(=O)N(O)CCCP(=O)(O)O"
  unitsText: "%"
  resultValue: 4.17
